The measurements presented in this section are drawn from PubChem BioAssay AID624129.

Target Or Test System: Beta-galactosidase (Escherichia coli) (UniProt Q8VNN2)
Sequence (Q8VNN2 whole entry, looked up): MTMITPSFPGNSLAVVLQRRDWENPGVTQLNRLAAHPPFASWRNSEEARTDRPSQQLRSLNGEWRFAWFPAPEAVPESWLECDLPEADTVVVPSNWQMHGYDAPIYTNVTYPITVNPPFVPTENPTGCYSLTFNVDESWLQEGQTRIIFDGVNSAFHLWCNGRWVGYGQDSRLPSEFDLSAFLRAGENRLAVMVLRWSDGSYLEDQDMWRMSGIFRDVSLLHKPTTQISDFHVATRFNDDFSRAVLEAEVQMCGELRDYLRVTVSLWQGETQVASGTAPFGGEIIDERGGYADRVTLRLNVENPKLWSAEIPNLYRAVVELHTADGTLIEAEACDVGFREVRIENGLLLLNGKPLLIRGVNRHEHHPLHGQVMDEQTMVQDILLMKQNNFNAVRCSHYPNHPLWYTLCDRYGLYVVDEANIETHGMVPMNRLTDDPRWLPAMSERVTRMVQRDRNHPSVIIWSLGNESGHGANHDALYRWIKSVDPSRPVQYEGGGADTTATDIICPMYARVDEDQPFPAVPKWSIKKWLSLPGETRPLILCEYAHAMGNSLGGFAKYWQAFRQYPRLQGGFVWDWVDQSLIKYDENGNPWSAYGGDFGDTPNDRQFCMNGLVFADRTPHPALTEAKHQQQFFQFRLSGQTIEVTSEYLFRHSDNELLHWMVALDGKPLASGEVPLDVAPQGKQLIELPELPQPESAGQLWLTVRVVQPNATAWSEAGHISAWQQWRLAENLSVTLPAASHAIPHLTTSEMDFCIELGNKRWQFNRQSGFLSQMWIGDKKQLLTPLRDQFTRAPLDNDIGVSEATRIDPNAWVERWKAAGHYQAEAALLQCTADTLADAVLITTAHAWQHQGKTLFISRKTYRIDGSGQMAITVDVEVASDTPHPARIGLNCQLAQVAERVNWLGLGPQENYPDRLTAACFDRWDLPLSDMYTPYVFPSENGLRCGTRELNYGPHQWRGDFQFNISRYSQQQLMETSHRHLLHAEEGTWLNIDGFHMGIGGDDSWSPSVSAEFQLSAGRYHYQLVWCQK
Protocol Summary: potency against CXCR6 with APJ panel – cell-based, beta-arrestin, DiscoveRx, uHTS hits, dose response (AID 624129)
Test Conditions: CXCR6 beta-arrestin (DiscoveRx) antagonist cell assay, b-galactosidase, dose range 1
Calls of active or inactive are those of the source. The rule behind the calls is not given here.
Observable: IC50

| Compound | Observable | Experimental Result |
| --- | --- | --- |
| O=C(C#Cc1ccccc1)c1ccc([N+](=O)[O-])cc1 | IC50 | > 80 µM (inactive) |
| O=C1CN(C(=O)CSc2nc3cc(Cl)ccc3c(=O)n2Cc2ccccc2)c2ccccc2N1 | IC50 | > 80 µM (inactive) |
| Cc1ccc(NC(=S)N/N=C/c2ccc([N+](=O)[O-])s2)cc1 | IC50 | 31.3 µM |
| Oc1c(I)cc(Cl)c2cccnc12 | IC50 | > 80 µM (inactive) |
| COc1ccc(C[C@@H]2OC3(C=CC(=O)C=C3)O[C@H]2Cc2ccc(OC)cc2)cc1 | IC50 | > 80 µM (inactive) |

Provide each entry's IC50 from the list below.
1. O=C(Nc1nccs1)c1sc2cc(Cl)ccc2c1Cl
2. COc1ccccc1C(=O)NNC(=S)NC(=O)c1cccs1

1. > 80 µM (inactive)
2. > 80 µM (inactive)

Provide each entry's IC50 from the list below.
1. CC1(C)CC(=O)C2=C(C1)OC1=C(C(=O)CC(C)(C)C1)C2c1ccc(O)cc1O
2. O=c1oc2ccccc2c(Cl)c1CN1CCCCC1
3. CCOC(=O)c1c(C)oc2c1c(C=NCc1ccccn1)c(O)c1ccccc12
4. Cc1cc(C)c2ccc(N)nc2c1O
5. Oc1c(Br)cc(Br)cc1C=NCc1ccccc1

1: > 80 µM (inactive); 2: 25.6 µM; 3: > 80 µM (inactive); 4: > 80 µM (inactive); 5: 28.5 µM

Provide each entry's IC50 from the list below.
1. CNC(=O)c1nnsc1S(=O)(=O)c1ccc(Cl)cc1
2. COc1ccc(CCN2C(=O)C=CC2=O)cc1OC

["> 80 µM (inactive)", "> 80 µM (inactive)"]

Provide each entry's IC50 from the list below.
1. O=[N+]([O-])c1c(Nc2cccc(O)c2)cc(Cl)c2nonc12
2. CS(=O)(=O)c1sc(C#N)c2c1C(=O)CC(c1ccccc1)C2 (stereo not drawn)
3. S=C(NCCCN1CCOCC1)Nc1ccc(Cl)cc1
4. S=C(N/N=C/c1ccccc1)N1CCOCC1
5. O=C1C=CC(=O)N1c1ccccc1N1C(=O)C=CC1=O
6. CN(C)C(=O)CSc1cccc2cccnc12
7. N#CC(C#N)=C1C=CC=CN1/C(=C\c1ccco1)C(=O)c1ccc(Cl)cc1
8. CC(=O)OCCCNc1cc(Sc2ccc(C)cc2)c2nonc2c1[N+](=O)[O-]

1: > 80 µM (inactive); 2: > 80 µM (inactive); 3: 26.5 µM; 4: > 80 µM (inactive); 5: > 80 µM (inactive); 6: > 80 µM (inactive); 7: 15.1 µM; 8: > 80 µM (inactive)

----------
Provide the recorded pIC50 for the entries that follow.
Target Or Test System: C-C chemokine receptor type 6 (Homo sapiens)
Protocol Summary: potency against CXCR6 with APJ panel – cell-based, beta-arrestin, DiscoveRx, uHTS hits, dose response (AID 624129)
Test Conditions: CXCR6 beta-arrestin (DiscoveRx) antagonist cell assay, CCR6, dose range 1, mean IC50 across replicates
Answers are plain numbers, as −log10 of the molar value.

These solved cases illustrate the format of a correct answer.
| Compound | Observable | Experimental Result |
| --- | --- | --- |
| Cc1ccc(C(C[N+](=O)[O-])Sc2ccc(N)cc2)cc1 (configuration not stated) | pIC50 | 4.73 |
| COc1ccc([N+](=O)[O-])c(S(=O)(=O)c2ccc(Cl)cc2)n1 | pIC50 | 4.20 |
| Cc1c(CCCl)c(Cl)n2c(nc3ccccc32)c1C#N | pIC50 | 4.38 |
| CC(=O)Nc1ccc(Sc2ccc([N+](=O)[O-])o2)cc1 | pIC50 | 5.05 |
| O=[N+]([O-])c1c(Nc2cccc(O)c2)cc(Cl)c2nonc12 | pIC50 | 4.88 |

Provide each entry's pIC50 from the list below.
1. O=[N+]([O-])c1c(NCCCO)cc(Sc2ccc(Cl)cc2)c2nonc12
2. FC(F)(F)c1cnc(NNC(=S)Nc2ccc(Cl)cc2)c(Cl)c1
3. CC(=O)Nc1ccc(NC(=O)c2nc(S(=O)(=O)Cc3cccc(C)c3)ncc2Cl)cc1

1: 4.89; 2: 4.98; 3: 5.25

Provide each entry's pIC50 from the list below.
1. O=[N+]([O-])c1cc(Cc2ccccc2)cc(C=Nc2ccc(N3CCOCC3)cc2)c1O
2. COc1ccc(OC)c(NC(=O)c2nc(S(=O)(=O)Cc3ccccc3)ncc2Cl)c1
3. CC(=O)OCCNc1cc(SCc2ccco2)c2nonc2c1[N+](=O)[O-]
4. CCCCCCCCn1sccc1=O
5. CNc1ccc2oc(C[C@H]3O[C@@]4(CC[C@H]3C)O[C@H]([C@H](C)C(=O)c3ccc[nH]3)[C@H](C)C[C@H]4C)nc2c1C(=O)O
6. O=c1cc(CSc2ccc(Cl)cc2)nc(-c2ccccn2)[nH]1
7. C=C1C(=O)C23CCC4C(C)(C(=O)OC)CCCC4(C)C2CCC1(O)C3 (configuration not stated)
8. CCc1ccccc1OCC(=O)Nc1nc(-c2cccnc2)cs1

4.43
5.14
4.85
5.17
5.21
5.36
5.26
5.16
